Measured values drawn from PubChem BioAssay AID1259312 for this set.

Test: survival after telomere uncapping, modulators, primary screen, cell-based (AID 1259312);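 note: virus expresses mutant telomerase RNA that uncaps telomeres and kills cells; compound added 2 days after infection so exposure lasts 3 days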
Settings: HCT116 + Ad-hTR-mut, MTT, 5 d; at 10 µM
Among all 4,500 compounds or so, about 200 (4.4%) were called active.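 Rule for the calls: active = cell survival measured by absorbance rises more than 2.5-fold over infected cells without compound; inactive = the rest.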 The sample holds actives, similar compounds and a random draw of the others, so the mix is not that of the screen.
Reply using exactly one outcome from 1 = active, -1 = inactive

Hey, what did the test say about CC1(C)Nc2ccccc2-c2c1ssc2=S ?
1

Could you do the same for Oc1c(Br)cc(Br)cc1C=Nc1cc(Cl)ccc1Cl , please?
-1

Could you do the same for O=[N+]([O-])c1ccc(N=Cc2cc(Br)cc([N+](=O)[O-])c2O)cc1 , please?
-1

Could you do the same for CSc1nc(-c2ccc([N+](=O)[O-])cc2)nn1C , please?
-1

Could you do the same for S=c1[nH]nc(COc2cccc3ccccc23)n1-c1ccccc1 , please?
1

Could you do the same for NC(CCCC(N)C(=O)O)C(=O)O (stereo not drawn) , please?
-1

Could you do the same for C=CCn1c(-c2ccc(OC)cc2)n[nH]c1=S , please?
-1

Could you do the same for COc1ccc(N2C(=O)/C(=C\N3CCN(C)CC3)SC2=S)cc1 , please?
-1

Could you do the same for CC(C)CCCC(C)C1CCC2C3CC=C4CC(O)CCC4(C)C3CCC12C (stereo not drawn) , please?
-1

Could you do the same for O=c1[nH]n2cc(-c3n[nH]c(-c4cnc5c(Br)c(=O)[nH]n5c4)c3[N+](=O)[O-])cnc2c1Br , please?
1

Could you do the same for Oc1c(Br)cc(Br)cc1C=Nc1ccc(Cl)cc1Cl , please?
1

Could you do the same for Cc1[nH]c2ccccc2c1C(=O)C(=O)NC(C)(C)C , please?
-1

Could you do the same for COC1OC2COC(c3ccccc3)OC2C(O)C1OS(=O)(=O)c1ccc(C)cc1 (stereo not drawn) , please?
-1

Could you do the same for Cc1ccc(C2C3=C(CC(C)(C)CC3=O)OC3=C2C(=O)CC(C)(C)C3)s1 , please?
-1

Could you do the same for CC(=O)[C@H]1CC[C@H]2[C@@H]3CCC4=CC(=O)CC[C@]4(C)[C@H]3CC[C@]12C , please?
-1

Could you do the same for CCOc1ccc2c(c1)-c1c(ssc1=S)C(C)(C)N2 , please?
1

Could you do the same for O=C1NC(=O)/C(=C/c2ccc(-c3ccc(Br)c(Cl)c3)o2)N1 , please?
-1

Could you do the same for COCCNS(=O)(=O)c1ccccc1 , please?
-1

Could you do the same for NC(=O)c1[nH]ncc1[N+](=O)[O-] , please?
-1

Could you do the same for COC1OC2COC(c3ccccc3)OC2C(O)C1O (stereo not drawn) , please?
1

Could you do the same for O=[N+]([O-])c1cc(Br)cc(C=Nc2ccc(N=Cc3cc(Br)cc([N+](=O)[O-])c3O)cc2)c1O , please?
-1

Could you do the same for Oc1c(Cl)cc(Cl)cc1C=Nc1ccc(Cl)cc1Cl , please?
-1

Could you do the same for CCOC(=O)c1c(NC(=O)C23CC4CC(CC(C4)C2)C3)sc2c1CCN(C(=O)OCC)C2 , please?
-1

Could you do the same for CC(=O)Nc1sc2c(c1C(=O)O)CCCC2 , please?
1

Could you do the same for NCCCN1CCc2ccccc21 , please?
-1

Could you do the same for CC(=O)Nc1sc2c(c1C(N)=O)CCCC2 , please?
-1

Could you do the same for CCCCc1ccc(-c2c(C#N)c(N)nc3c2CCCCCC3)s1 , please?
-1

Could you do the same for O=[N+]([O-])c1ccc(O)c(N=Cc2cc(Br)cc(Br)c2O)c1 , please?
1

Could you do the same for CSc1nnnn1-c1ccccc1 , please?
-1

Could you do the same for c1ccc(-n2nnnc2SCSc2nnnn2-c2ccccc2)cc1 , please?
1

Could you do the same for O=C(c1ccc2[nH]c(=O)oc2c1)c1ccc2[nH]c(=O)oc2c1 , please?
-1

Could you do the same for c1ccc(-c2ccc(CSc3nc4ccccc4o3)cc2)cc1 , please?
-1

Could you do the same for Cc1ccc2c(c1)-c1c(ssc1=S)C(C)(C)N2 , please?
-1

Could you do the same for N=C1SCC(=O)N1c1nccs1 , please?
-1

Could you do the same for Cc1cccc2c1N(C(=O)c1ccc(-c3ccccc3)cc1)C(C)(C)c1ssc(=S)c1-2 , please?
-1

Could you do the same for CCCCCC(=O)O[C@]1(C(C)=O)CC[C@H]2[C@@H]3CCC4=CC(=O)CC[C@]4(C)[C@H]3CC[C@@]21C , please?
-1

Could you do the same for S=c1[nH]nc(COc2ccccc2)n1-c1ccccc1 , please?
-1

Could you do the same for CC(=O)Nc1nonc1NC(=O)C(F)(F)F , please?
-1

Could you do the same for c1ccc(-c2noc(CSc3nnnn3-c3ccccc3)n2)cc1 , please?
-1

Could you do the same for CC(=O)OC1CCC2(C)C(=CCC3C2CC[C@]2(C)C(C(C)=O)CCC32)C1 (stereo partly drawn) , please?
-1

Could you do the same for O=C(C1=C(O)C(=O)N(CCN2CCOCC2)C1c1ccco1)c1ccco1 (stereo not drawn) , please?
-1

Could you do the same for O=[N+]([O-])c1ccc(N=Cc2cc(Br)cc(Br)c2O)c(O)c1 , please?
-1

Could you do the same for S=c1[nH]nc(Cn2cnc3ccccc32)n1-c1ccccc1 , please?
-1

Could you do the same for CCSc1ccc(Sc2ccc(SCC)s2)s1 , please?
-1

Could you do the same for COc1ccc(C(O)c2nccn2C)cc1OC (stereo not drawn) , please?
-1

Could you do the same for N[C@@H](CSCC(=O)O)C(=O)O , please?
1

Could you do the same for c1ccc2c(Cc3ccncc3)c3ccccc3nc2c1 , please?
-1

Could you do the same for CC(=O)Nc1sc2c(c1C(N)=O)CCCCC2 , please?
-1

###

Assay: survival after telomere uncapping, modulators, primary screen, cell-based (AID 1259312);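 note: virus expresses mutant telomerase RNA that uncaps telomeres and kills cells; compound added 2 days after infection so exposure lasts 3 days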
Conditions: HCT116 + Ad-hTR-mut, MTT, 5 d; at 10 µM
The whole screen tested about 4,500 compounds, of which about 200 (4.4%) were called active.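 Rule for the calls: active = cell survival measured by absorbance rises more than 2.5-fold over infected cells without compound; inactive = the rest.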 For the sample, actives were picked, then their nearest neighbours and some compounds at random.
Reply using exactly one outcome from Y (active), N (inactive)

Hey, what did the test say about O=c1[nH]cnc2nn(-c3ccccc3)nc12 ?
N

Could you do the same for c1ccc(-c2ccc3ccccc3n2)nc1 , please?
N

Could you do the same for CCOC(=O)c1c(NC(=O)c2ccco2)sc(C(=O)N2CCCC2)c1C , please?
N

Could you do the same for Cc1ccc(-c2nn(CN3CCC(c4ccccc4)C3)c(=S)n2-c2ccccc2)cc1 (stereo unspecified) , please?
N

Could you do the same for O=S(=O)(O)c1ccc(-c2nnc(-c3ccccn3)nc2-c2ccc(S(=O)(=O)O)o2)o1 , please?
N

Could you do the same for CN1CCN(S(=O)(=O)c2ccc(Br)cc2)CC1 , please?
Y

Could you do the same for CC(C)(C)c1ccc(-c2nn(CN3CCC(c4ccccc4)C3)c(=S)n2-c2ccccc2)cc1 (stereo unspecified) , please?
N

Could you do the same for CC1CC[C@H](C(C)C)C(O)C1 (stereo partly specified) , please?
N

Could you do the same for S=c1n(CN2CCCCC2)nc(-c2ccccc2)n1-c1ccccc1 , please?
Y

Could you do the same for COc1ccc(NS(=O)(=O)c2ccc(N=Cc3cc(Br)cc(Br)c3O)cc2)nn1 , please?
N

Could you do the same for O=S(=O)(c1ccc(Br)cc1)N1CCCCCC1 , please?
N

###

I'd appreciate it if you could supply fold change values for the items below.
Assay: survival after telomere uncapping, modulators, primary screen, cell-based (AID 1259312);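 note: virus expresses mutant telomerase RNA that uncaps telomeres and kills cells; compound added 2 days after infection so exposure lasts 3 days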
Conditions: HCT116 + Ad-hTR-mut, MTT, 5 d; at 10 µM, hits give high values
Screen size: about 4,500 compounds; about 200 (4.4%) were called active. The full list was thinned out, with actives kept by preference.

Given the molecule O=C1c2ccccc2C(O)(O)C1(O)C1(O)C(=O)c2ccccc2C1(O)O (stereo unspecified) , what is its reported fold change?
-1.12 (inactive)

Could you do the same for O=C(NCCOC(=O)Nc1ccc(Cl)c(Cl)c1)Nc1ccc(Cl)c(Cl)c1 , please?
-1.04 (inactive)

Could you do the same for O=C(Nc1ccc(F)cc1)Nc1nncs1 , please?
-1.15 (inactive)

Could you do the same for CN=C1S/C(=C/c2cn(Cc3ccc(F)cc3)c3ccccc23)C(=O)N1C , please?
-1.32 (inactive)

Could you do the same for S=c1[nH]nc(-c2ccccc2)n1C1CCCCC1 , please?
1.07 (inactive)

Could you do the same for O=C(Nc1ccccc1)Nc1snnc1C(=O)O , please?
4.77 (active)

###

Test: survival after telomere uncapping, modulators, primary screen, cell-based (AID 1259312);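 note: virus expresses mutant telomerase RNA that uncaps telomeres and kills cells; compound added 2 days after infection so exposure lasts 3 days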
Details: HCT116 + Ad-hTR-mut, MTT, 5 d; at 10 µM, hits give high values
The campaign covered roughly 4,500 compounds. About 200 (4.4%) were called active. Shown is part of a subset that was picked to be rich in actives.
parameter.measured: fold change
Response field accepts a number only; no unit should be typed.

Given the molecule O=C(c1cccs1)[C@H]1CCCC[C@H]1C(=O)O , what is its reported fold change?
1.2

Could you do the same for ON=C1C2CC3CC(C2)CC1C3 , please?
-1.41

Could you do the same for CSc1nc2ccccc2n1Cc1ccccc1Cl , please?
1.29

Could you do the same for O=C1NC(=S)S/C1=C/c1ccc(O)cc1 , please?
3.65

Could you do the same for Cc1sc2c(c1C)C(=O)NC(/C=C/c1ccc3c(c1)OCO3)N2 (stereo not drawn) , please?
-1.11

Could you do the same for Brc1ccccc1-c1nnc(C(c2ccccc2)c2ccccc2)o1 , please?
-1.33

Could you do the same for N=C(N)SCc1csc(N)n1 , please?
1.98

Could you do the same for Cc1ccc(-c2n[nH]c(=S)n2C)cc1Cl , please?
-1.92

Could you do the same for Cn1cccc1/C=C(/C#N)C(N)=O , please?
1.32

Could you do the same for Cn1cc([N+](=O)[O-])c(C(=O)n2cccn2)n1 , please?
-1.36

Could you do the same for CCCCNC(=O)OCCSC(=S)NCCC , please?
2.45

Could you do the same for Cn1c(-c2ccc(Cl)cc2Cl)n[nH]c1=S , please?
2.57

Could you do the same for [O-][n+]1onc(C(c2ccccc2)c2ccccc2)c1C(c1ccccc1)c1ccccc1 , please?
-1.76
